target: Estrogen receptor beta (ERβ) (Homo sapiens, UniProt Q92731); construct: expressed in transfected cells; host or cells: NIH3T3; experiment: Receptor Selection and Amplification Technology (R-SAT) functional receptor assay, ERβ; type: cell-based; conditions: R-SAT, transfected NIH3T3 cells, agonist activity; read-out: pEC50 ERβ (converted)
Sequence (Q92731 whole entry): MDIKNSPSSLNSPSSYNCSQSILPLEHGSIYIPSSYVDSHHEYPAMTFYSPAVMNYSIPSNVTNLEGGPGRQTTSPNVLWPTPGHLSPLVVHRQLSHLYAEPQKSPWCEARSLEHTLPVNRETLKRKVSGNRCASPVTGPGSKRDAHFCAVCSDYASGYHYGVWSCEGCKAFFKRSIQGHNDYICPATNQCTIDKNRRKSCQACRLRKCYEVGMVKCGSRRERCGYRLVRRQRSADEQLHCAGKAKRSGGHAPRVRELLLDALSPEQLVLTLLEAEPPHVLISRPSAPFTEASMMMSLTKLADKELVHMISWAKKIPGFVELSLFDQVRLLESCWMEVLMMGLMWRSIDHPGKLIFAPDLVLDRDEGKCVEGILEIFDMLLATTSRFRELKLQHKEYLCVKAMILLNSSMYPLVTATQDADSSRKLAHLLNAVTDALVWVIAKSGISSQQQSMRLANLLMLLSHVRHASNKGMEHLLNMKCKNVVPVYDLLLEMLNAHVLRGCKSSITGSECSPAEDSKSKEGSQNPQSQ
// values below are reported log10 EC50
The base-10 logarithm of EC50, taken with EC50 in nM, is what appears here.

* CC(C)C1CCC(c2ccc(O)cc2)(c2cccc(F)c2)CC1 (stereo not drawn) | 0.90
* Oc1ccc(C2(c3ccc(F)cc3F)CCCCC2)cc1 | 1.90
* Oc1ccc(C2(c3ccccc3)CCC(C(F)(F)F)CC2)cc1 (stereo not drawn) | 1.80
* Oc1ccc(C2(c3ccccc3)CCCCCCC2)cc1 | 0.80
* Oc1ccc(C2(c3ccccc3)CCCCCC2)cc1 | 2.10

Next item in the queue.
get_value(item= "Oc1ccc(C2(c3ccc(F)cc3)CCCCCC2)cc1O" , readout=log10 EC50) returns 1.90

// data source = patent US20050256210A1
